ASSAYED_TARGET: T1, PACAP-R3 (human, UniProt P41587 24-438)
T1 sequence (looked up): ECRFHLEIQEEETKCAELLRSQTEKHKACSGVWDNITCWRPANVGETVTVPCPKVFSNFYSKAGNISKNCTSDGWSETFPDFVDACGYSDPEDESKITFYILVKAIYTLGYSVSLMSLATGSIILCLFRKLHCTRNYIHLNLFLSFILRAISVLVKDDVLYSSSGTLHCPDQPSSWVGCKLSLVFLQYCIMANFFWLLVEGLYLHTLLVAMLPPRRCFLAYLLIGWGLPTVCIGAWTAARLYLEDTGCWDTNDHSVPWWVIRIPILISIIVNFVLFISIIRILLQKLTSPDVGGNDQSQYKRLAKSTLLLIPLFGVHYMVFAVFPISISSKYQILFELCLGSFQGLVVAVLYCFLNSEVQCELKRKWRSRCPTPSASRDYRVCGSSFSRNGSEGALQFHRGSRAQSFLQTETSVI
EXPERIMENT_DESCRIPTION: cell-based or functional assay
READOUT_NAME: R3 Selectivity

[[record]]
binder = "HSDAVFTDNYTRLRKQMAAHKYLNSIKNKRY [R3P73]"
observed_result = "170 ratio"

[[record]]
binder = "HSDAVFTDNYTRLRKQVAAKKYLQSIKNKRY [R3P66]"
observed_result = "250 ratio"

[[record]]
binder = "HSDAVFTDNYTRLRKQLAAKKYLNTIKNKRY [R3P67]"
observed_result = "330 ratio"

[[record]]
binder = "HSDAVFTDNYTRLRKQVAAKKYLQSILNKR [R3P92]"
observed_result = "100 ratio"

